pIC50: −log10 of the molar value.
Dear all, I have gathered published pIC50 values for Cytochrome P450 2D6 (Homo sapiens); the list follows.

- structure_string: "O=C(O)CCc1ccc(NCc2cccc(Oc3ccccc3)c2)cc1"
  result: "< 4.48"
- structure_string: "CC(C)S(=O)(=O)N[C@@H]1Cc2ccc(-c3ccc(F)nc3)cc2C1"
  result: "< 5.00"
- structure_string: "Cc1nnc(C)n1-c1ccc(O[C@H]2c3cc(Cl)ccc3C[C@@H]2N2CC[C@@H](O)C2)c(Cl)c1"
  result: 5.02
- structure_string: "COc1c(Nc2ncc(Cl)c(N[C@H]3[C@@H](C(N)=O)[C@@H]4C=C[C@H]3C4)n2)ccc2c1CCC[C@H](N1CCN(C)CC1)C2"
  result: "< 5.00"
- structure_string: "Cc1cccc(-c2[nH]c(NCc3cccc(F)c3)nc2-c2ccc3[nH]ncc3c2)n1"
  result: 5.17
- structure_string: "COC(=O)N1C[C@@H](C)N(c2ncc3[nH]nc(-c4ccc(N5CCN(C)CC5)cc4)c3n2)[C@@H](C)C1"
  result: "< 4.60"

Q: Any idea what its pIC50 is? The compound is C[C@@H]1Cc2c([nH]c3ccccc23)[C@@H](c2c(F)cc(NC3CN(CCCF)C3)cc2F)N1CC(F)(F)CO
Result: < 5.00

Q: // next record O=S(=O)(Nc1ccc(-c2cc[nH]n2)cc1)c1cc(Cl)cc(Cl)c1
Result: 4.93

Q: // next record COC(=O)c1ccc(CSc2ccc3nc(N)sc3c2)cc1
Result: > 5.00
